Consider the following compounds and their measured % Fecal water readings.
Test system: fecal water content
assay explanation: Pharmacodynamic model: effect of test compounds on fecal water content
Assay type: in vivo, rat
experimental setup: female Sprague Dawley rats, 3 mg/kg oral, feces collected 16 hrs, mean of 6
Counter-ions that a name gives are not always drawn.
Express the result in % but write the number alone.

compound	target or system	endpoint label	unit annotation	value measured
CN1Cc2c(Cl)cc(Cl)cc2C(c2cccc(S(=O)(=O)NCCOCCOCCNC(=O)NCCCCNC(=O)NCCOCCOCCNS(=O)(=O)c3cccc(C4CN(C)Cc5c(Cl)cc(Cl)cc54)c3)c2)C1 (stereo not shown) [Example 236]	fecal water content	% Fecal water	%	64
CN1Cc2c(Cl)cc(Cl)cc2C(c2cccc(S(=O)(=O)NCCOCCOCCNC(=O)c3ccc(C(=O)NCCOCCOCCNS(=O)(=O)c4cccc(C5CN(C)Cc6c(Cl)cc(Cl)cc65)c4)cc3)c2)C1 (stereo not shown) [Example 234]	fecal water content	% Fecal water	%	58
CN1Cc2c(Cl)cc(Cl)cc2C(c2cccc(S(=O)(=O)NCCOCCOCCNC(=O)Nc3ccc(NC(=O)NCCOCCOCCNS(=O)(=O)c4cccc(C5CN(C)Cc6c(Cl)cc(Cl)cc65)c4)cc3)c2)C1 (stereo not shown) [Example 237]	fecal water content	% Fecal water	%	60

Enquiry: GET % Fecal water where system = fecal water content and item = CN1Cc2c(Cl)cc(Cl)cc2[C@H](c2ccc(S(=O)(=O)NCCOCCOCCOCCNC(=O)NCCOCCOCCOCCNS(=O)(=O)c3ccc([C@@H]4CN(C)Cc5c(Cl)cc(Cl)cc54)cc3)cc2)C1 (single isomer, unassigned) [Example 250]
Return: 60

Enquiry: For fecal water content, give the measured % Fecal water of the entry CN1Cc2c(Cl)cc(Cl)cc2[C@H](c2cccc(S(=O)(=O)NCCOCCOCCNC(=O)NCCCCNC(=O)NCCOCCOCCNS(=O)(=O)c3cccc([C@@H]4CN(C)Cc5c(Cl)cc(Cl)cc54)c3)c2)C1 (single isomer, unassigned) [Example 202, bis-hydrochloride salt]
Return: 63

Enquiry: Report its % Fecal water with fecal water content as the test system: CN1Cc2c(Cl)cc(Cl)cc2C(c2ccc(S(=O)(=O)NCCOCCOCCNC(=O)Nc3ccc(NC(=O)NCCOCCOCCNS(=O)(=O)c4ccc(C5CN(C)Cc6c(Cl)cc(Cl)cc65)cc4)cc3)cc2)C1 (stereo not shown) [Example 239]
Return: 58

###

target or system: rat NHE-3 (Rattus norvegicus, UniProt P26433)
Construct: expressed in transfected cells; host or cells: Opossum kidney (OK) cells (ATCC), electroporated
Sequence (P26433 29-831): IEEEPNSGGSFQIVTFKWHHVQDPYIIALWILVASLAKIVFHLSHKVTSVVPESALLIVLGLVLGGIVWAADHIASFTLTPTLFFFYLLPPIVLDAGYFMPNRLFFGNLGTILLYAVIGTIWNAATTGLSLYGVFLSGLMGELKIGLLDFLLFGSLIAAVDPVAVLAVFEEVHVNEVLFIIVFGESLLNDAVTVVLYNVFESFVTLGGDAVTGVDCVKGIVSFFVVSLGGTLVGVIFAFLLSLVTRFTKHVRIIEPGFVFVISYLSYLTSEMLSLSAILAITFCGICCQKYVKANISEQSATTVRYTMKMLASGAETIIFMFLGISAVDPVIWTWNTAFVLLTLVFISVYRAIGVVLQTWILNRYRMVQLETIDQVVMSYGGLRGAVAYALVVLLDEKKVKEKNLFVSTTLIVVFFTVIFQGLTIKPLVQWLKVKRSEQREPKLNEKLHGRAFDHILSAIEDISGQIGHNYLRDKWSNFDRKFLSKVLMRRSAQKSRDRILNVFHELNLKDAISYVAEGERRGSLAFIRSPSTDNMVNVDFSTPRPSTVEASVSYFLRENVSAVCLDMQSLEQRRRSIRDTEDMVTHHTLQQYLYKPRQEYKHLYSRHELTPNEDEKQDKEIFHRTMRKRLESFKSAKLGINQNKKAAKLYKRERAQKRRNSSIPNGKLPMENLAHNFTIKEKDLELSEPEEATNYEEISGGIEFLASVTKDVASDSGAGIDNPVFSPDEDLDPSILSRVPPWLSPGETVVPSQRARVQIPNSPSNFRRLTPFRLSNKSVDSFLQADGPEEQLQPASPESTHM
assay explanation: Cell-based assay of NHE-3 activity (Pharmacological Test Example 1)
experimental setup: OK cells expressing rat NHE-3; 0-30 uM test compound, 5 uM EIPA
endpoint label: rat NHE-3 Average pIC50

Use the examples below as a reference point.
compound	target or system	value measured
CN1Cc2c(Cl)cc(Cl)cc2C(c2ccc(S(=O)(=O)NCCOCCOCCOCCNC(=O)NCCOCCOCCOCCNS(=O)(=O)c3ccc(C4CN(C)Cc5c(Cl)cc(Cl)cc54)cc3)cc2)C1 (stereo not shown)	rat NHE-3 (Rattus norvegicus, UniProt P26433)	>7
CN1Cc2c(Cl)cc(Cl)cc2C(c2cccc(S(=O)(=O)NCCOCCOCCNC(=O)Nc3ccc(NC(=O)NCCOCCOCCNS(=O)(=O)c4cccc(C5CN(C)Cc6c(Cl)cc(Cl)cc65)c4)cc3)c2)C1 (stereo not shown)	rat NHE-3 (Rattus norvegicus, UniProt P26433)	>7

Enquiry: Annotate the compound CN1Cc2c(Cl)cc(Cl)cc2C(c2cccc(S(=O)(=O)NCCOCCOCCOCCOCCOCCOCCOCCOCCOCCOCCNC(=O)CCOCCOCCOCCOCCOCCOCCOCCOCCOCCC(=O)NCCOCCOCCOCCOCCOCCOCCOCCOCCOCCOCCNS(=O)(=O)c3cccc(C4CN(C)Cc5c(Cl)cc(Cl)cc54)c3)c2)C1 (stereo not shown) with its measured rat NHE-3 Average pIC50.
Return: 6 to 7

Enquiry: Look up and report measured rat NHE-3 Average pIC50 for this entry: CN1Cc2c(Cl)cc(Cl)cc2C(c2cccc(S(=O)(=O)NCCOCCOCCOCCNC(=O)CN(CC(=O)NCCOCCOCCOCCNS(=O)(=O)c3cccc(C4CN(C)Cc5c(Cl)cc(Cl)cc54)c3)CC(=O)NCCOCCOCCOCCNS(=O)(=O)c3cccc(C4CN(C)Cc5c(Cl)cc(Cl)cc54)c3)c2)C1 (stereo not shown)
Return: 6 to 7

###

assay explanation: Determination of compound Cmax and AUC
Assay type: in vivo
experimental setup: rat; Sprague-Dawley rats, oral gavage, serum 0.5-4 h; actual oral dose (mg/kg) given
endpoint label: Cmax

Use the examples below as a reference point.
compound	Cmax
CN1Cc2c(Cl)cc(Cl)cc2[C@H](c2cccc(S(=O)(=O)NCCOCCOCCOCCNC(=O)Nc3ccc(NC(=O)NCCOCCOCCOCCNS(=O)(=O)c4cccc([C@@H]5CN(C)Cc6c(Cl)cc(Cl)cc65)c4)cc3)c2)C1 (single isomer, unassigned) [Example 245]	< 2 ng/mL
C/C(=C\c1cc(F)c(Oc2ccc(S(=O)(=O)NCCOCCOCCOCCOCCOCCOCCN)cc2)c(F)c1)C(=O)N=C(N)N [Example 211]	< 2.3 ng/mL

Enquiry: Note down Cmax recorded for CN1Cc2c(Cl)cc(Cl)cc2C(c2cccc(S(=O)(=O)NCCOCCOCCOCCNC(=O)C(O)C(O)C(=O)NCCOCCOCCOCCNS(=O)(=O)c3cccc(C4CN(C)Cc5c(Cl)cc(Cl)cc54)c3)c2)C1 (stereo not shown) [Example 172]
Return: < 2 ng/mL

Enquiry: Input CN1Cc2c(Cl)cc(Cl)cc2C(c2cccc(S(=O)(=O)NCCOCCOCCOCCNC(=O)CN(CC(=O)NCCOCCOCCOCCNS(=O)(=O)c3cccc(C4CN(C)Cc5c(Cl)cc(Cl)cc54)c3)CC(=O)NCCOCCOCCOCCNS(=O)(=O)c3cccc(C4CN(C)Cc5c(Cl)cc(Cl)cc54)c3)c2)C1 (stereo not shown) [Example 213] , output reported Cmax.
Return: < 5 ng/mL

###

Below, each entry is listed with its recorded AUC.
assay explanation: Determination of compound Cmax and AUC
Assay type: in vivo
experimental setup: rat; Sprague-Dawley rats, oral gavage, serum 0.5-4 h; actual oral dose (mg/kg) given
Protocol: Sprague-Dawley rats were orally gavaged with test article (2.5 mg/kg) and serum was collected at 0.5, 1, 2 and 4 h. Serum samples were treated with acetonitrile, precipitated proteins removed by centrifugation and supernatants analyzed by LC/MS/MS and compared against a standard curve to determine compound concentration. All compounds were orally dosed at the dosage shown, and pharmacokinetic parameters determined as described in the text.
Write the number in ng·h/mL without appending the unit.

molecule	endpoint label	value measured
CN1Cc2c(Cl)cc(Cl)cc2C(c2cccc(S(=O)(=O)NCCP(=O)(O)O)c2)C1 (centres unmarked) [Example 1]	AUC	53

Turning to the following molecule.
Enquiry: Using known records, supply AUC for C/C(=C\c1cc(F)c(Oc2ccc(S(=O)(=O)NCCN3CCN(CCNS(=O)(=O)c4ccc(Oc5c(F)cc(/C=C(\C)C(=O)N=C(N)N)cc5F)cc4)CC3)cc2)c(F)c1)C(=O)N=C(N)N [Example 50]
Return: 242

###

target or system: rat NHE-3 (Rattus norvegicus, UniProt P26433)
Construct: expressed in transfected cells; host or cells: Opossum kidney (OK) cells (ATCC), electroporated
assay explanation: Cell-based assay of NHE-3 activity (Pharmacological Test Example 1)
experimental setup: OK cells expressing rat NHE-3; 0-30 uM test compound, 5 uM EIPA
Protocol: Rat NHE-3-mediated Na^+-dependent H^+ antiport was measured using a modification of the pH sensitive dye method originally reported by Tsien (Proc. Natl. Acad. Sci. USA. (1984) 81(23): 7436-7440). Opossum kidney (OK) cells were obtained from the ATCC and propagated per their instructions. The rat NHE-3 gene was introduced into OK cells via electroporation, seeded into 96 well plates and grown overnight. […]
endpoint label: rat NHE-3 Average pIC50

molecule	endpoint label	value measured
CN1Cc2c(Cl)cc(Cl)cc2C(c2cccc(S(=O)(=O)NCCOCCOCCNC(=O)NCCCCNC(=O)NCCOCCOCCNS(=O)(=O)c3cccc(C4CN(C)Cc5c(Cl)cc(Cl)cc54)c3)c2)C1 (centres unmarked)	rat NHE-3 Average pIC50	>7
N=C(N)N1CCN(c2cccc(-c3nc(N=C(N)N)nc4ccc(Cl)cc34)c2)CC1	rat NHE-3 Average pIC50	6 to 7
C/C(=C\c1cc(F)c(Oc2ccc(S(=O)(=O)NCCOCCOCCOCCNC(=O)CCCCCCC(=O)NCCOCCOCCOCCNS(=O)(=O)c3ccc(Oc4c(F)cc(/C=C(\C)C(=O)N=C(N)N)cc4F)cc3)cc2)c(F)c1)C(=O)N=C(N)N	rat NHE-3 Average pIC50	>7
CN1Cc2c(Cl)cc(Cl)cc2C(c2cccc(S(=O)(=O)NCCOCCOCCNC(=O)COCC(=O)NCCOCCOCCNS(=O)(=O)c3cccc(C4CN(C)Cc5c(Cl)cc(Cl)cc54)c3)c2)C1 (centres unmarked)	rat NHE-3 Average pIC50	>7

Consider now this further molecule.
Enquiry: // fetch rat NHE-3 Average pIC50 given entry `C/C(=C\c1cc(F)c(Oc2ccc(S(=O)(=O)NCCOCCOCCOCCOCCOCCOCCNC(=O)[C@H](O)[C@@H](O)C(=O)NCCOCCOCCOCCOCCOCCOCCNS(=O)(=O)c3ccc(Oc4c(F)cc(/C=C(\C)C(=O)N=C(N)N)cc4F)cc3)cc2)c(F)c1)C(=O)N=C(N)N`
Return: 6 to 7
